assay: NCI Yeast Anticancer Drug Screen. Data for the bub3 strain (AID 167); settings: S. cerevisiae bub3 mutant strain, at 50.0 µM, hits give high values
The panel holds about 79,000 compounds, 15% with a hit somewhere; the sample as a whole holds those more often.
Readout kind: growth inhibition (%)
The answer is to be given in %; state only the numeric part.

Param item = O=S1(=O)CC(N2CCCCC2)C2=C(O1)c1ccccc1N(c1ccccc1)C2 (centres undefined) ; retrieve measured growth inhibition.
-0.4

Entry c1ccc(CN2CCc3ncnc(Nc4ccccc4)c3C2)cc1 : reported growth inhibition = ?
4.75

# get_value(readout='growth inhibition', item= O=C(O)C1C2CCC(O2)C1C(=O)Nc1cccc2cccnc12 (centres undefined) )
22.5

Entry under review: CC(C)C(N=Cc1ccccc1O)C(=O)O (centres undefined) . Reported growth inhibition?
-47.9

Request the reported growth inhibition associated with O=C(Nc1ccc(F)cc1)c1ccc(Cl)cc1Cl
-4.2

Look up growth inhibition: c1ccc2c(N=C(Nc3cccc4ccccc34)c3cccc4ccccc34)cccc2c1
17.3

If you can, please state the reported growth inhibition value of O=C(O)c1cc(-c2ccc(-c3ccccc3)cc2)nc2cc3ccccc3cc12 .
-54.9

Recorded growth inhibition for O=C1NC(=O)N2CC(CI)OC2C1c1ccccc1 (centres undefined) , please?
-6.6

Recorded growth inhibition for CCc1cc2c(cc1C(=O)/C=C\c1ccco1)C(C)(C)CCC2(C)C , please?
97.7

Need growth inhibition, item COc1ccc(OC)c(C(O)P(=O)(c2ccccc2)c2ccccc2)c1 (centres undefined)
27.1

Quick check: growth inhibition of c1ccc(CCc2ccncc2)cc1 ?
3.6

Quick one: growth inhibition of COc1ccc(Cc2cc(N=NC(N)=O)c(C)cc2O)cc1 ?
3.5

Any idea what its growth inhibition is? The compound is COC(=O)C1=C(C)NC(C)=C(C(=O)OC)C1c1cccc(N=O)c1
26.6

Data request, read-out growth inhibition, for NC(=O)CS(=O)CC(N)C(=O)O (centres undefined)
-10.9

Would you kindly share the measured growth inhibition for CN(C)S(=O)(=O)c1ccc(NC(=O)OC2CCCC2)cc1 ?
24.6

Requested field: growth inhibition. Item: Cc1ccc(N)c(C(O)(C(F)(F)F)C(F)(F)F)c1
16.6

growth inhibition lookup needed for COc1cccc(C2ON=C(c3ccccc3)N2C23CC4CC(CC(C4)C2)C3)c1 (centres undefined) , thanks.
10.1

What does the record list as growth inhibition for CCOC(=O)CSc1[nH]c(NC(=S)Nc2ccccc2)c(C(N)=O)c1C(N)=O ?
7.5

Need growth inhibition of Cc1ccc2nc(N)nc(N)c2c1 , thanks.
-10.6

Which growth inhibition is reported for this compound? O=[N+]([O-])c1ccc2nc(/C=C(\O)c3ccccc3)c(NC34CC5CC(CC(C5)C3)C4)nc2c1
-17.8

Need growth inhibition, item CC(=O)c1ccc(O)c(C=O)c1O
-2.9

Find the recorded growth inhibition belonging to Cc1ncc(CO)c(/C=N\NC(N)=S)c1O and report it.
-39.1

Any idea what growth inhibition was measured for C/C(N=NC(=S)N1CCC(C)CC1)=C1\C=CC=CN1O ?
48

Look up growth inhibition for this compound: O=S(=O)(c1ccccc1)C1CCCC1
-6.7

For the compound shown here, CCc1ccc(NC(=O)C(c2ccccc2)c2ccccc2)cc1 , give the reported growth inhibition.
20.6

Tell me the measured growth inhibition of CC(NS(=O)(=O)c1cccc(C(=O)O)c1)c1ccccc1 (centres undefined) , please.
3.25

Return reported growth inhibition; argument: Cc1cc(C(O)CNCCn2cnc3c2c(=O)n(C)c(=O)n3C)ccc1O (centres undefined)
-4.95

Which growth inhibition is reported for this compound? COc1ccc2cc3n(c2c1)CCc1cc(OC)c(OC)cc1-3
3

growth inhibition for O=C1NC2c3ccccc3CCC12 (centres undefined) ?
8.65

What does the record list as growth inhibition for COc1ccc(C=Nc2cc([N+](=O)[O-])ccc2O)cc1 ?
25.5

Name the reported growth inhibition value associated with the compound C/C(=C/CNc1ncnc2c1ncn2CCC(=O)O)CO
1.7

Need growth inhibition of O=C(CCSCCC(=O)N/N=C/c1ccccc1F)N/N=C\c1ccccc1F , thanks.
24.4

What measured growth inhibition goes with Cc1ncc([N+](=O)[O-])n1CCNC(=O)CCCCn1ccnc1[N+](=O)[O-] ?
7.15

Which measured growth inhibition value corresponds to CCCCCCCCCCCn1cnc2c(=S)nc[nH]c21 ?
-21.2

Any idea what its growth inhibition is? The compound is N#CCCn1ncc(C#N)c1N
-2.5

Item under review: O=C(C[n+]1ccccc1)NNC(=O)/C(=C/c1ccc2c(c1)OCO2)NC(=O)c1ccccc1 . Reported growth inhibition?
-3.95

If you can, please state the reported growth inhibition value of Cc1ccc(S(=O)(=O)N/N=C/C(C)c2cccnc2)cc1 (centres undefined) .
5.9

// query growth inhibition value for entry CNC(=O)c1ccccc1CC1(O)CCCC1
-9.75

Item Cc1ccccc1N=Cc1ccccc1[N+](=O)[O-] has what recorded growth inhibition?
-0.6

Query (compound): CN(C)/C(N)=N\C(N)=Nc1cc2ccccc2c2ccccc12 ; field requested: growth inhibition
2.25

Look up growth inhibition for this compound: CN(Nc1ccnc(=O)[nH]1)c1ccccc1
-2.7

growth inhibition for O=C(Nc1ccccc1)c1cc(S(=O)(=O)n2cc[nH]c2=O)c(S)cc1Cl ?
2.65

For Nc1ccc2ncc(NCc3ccc(F)cc3)nc2c1 , what is its reported growth inhibition?
3.4

Which value of growth inhibition has been reported for CC(=O)N(c1c(N)[nH]c(=O)n(C)c1=O)C1OC(CO)C(O)C(O)C1O (centres undefined) in the records?
4.3

Item Cc1ccc2c(c1)NC(c1ccc(C(=O)O)cc1)c1cccn1-2 (centres undefined) has what recorded growth inhibition?
19.3

Requested field: growth inhibition. Item: COc1cc(C(=O)O)cc(OC)n1
-16.9

Would you mind telling me what growth inhibition value was observed for N#CC1(NC2CCCCC2)CCN(Cc2ccccc2)CC1 ?
-7.5

Any idea what growth inhibition was measured for Nc1ncnc2c1cnn2Cc1ccccc1 ?
21.2

Quick one: growth inhibition of COC1=CC(=O)N(C)C(O)C1(C#N)OC1OC(CO)C(O)C(O)C1O (centres undefined) ?
-17.9
